Tested on: WM3928 cells
protocol: WM3928 Cell Proliferation Assay (1)
Type: cell-based
Measured IC50, listed per entry.
outcome-measure: IC50

1. COC(=O)Nc1cc(-c2cnnc(-c3cc(NC(=O)COCC4CC4)ccc3C)c2)ccn1 : 1 to 10 µM
2. Cc1ccc(NC(=O)c2ccnc(C(C)(C)C#N)c2)cc1-c1cncc(-c2ccnc(NC(=O)C3CC3)c2)n1 : ≤ 0.1 µM
3. Cc1ncc(NC(=O)c2ccnc(C(C)(C)C#N)c2)cc1-c1cccc(-c2ncnn3cccc23)c1 : 1 to 10 µM
4. Cc1ccc(NC(=O)c2ccnc(C3(C#N)CC3)c2)cc1-c1cccc(-c2cc(NC(=O)C3CC3)ncn2)c1 : ≤ 0.1 µM
5. Cc1ccc(NC(=O)c2ccnc(C(F)(F)F)c2)cc1-c1ccnc(-c2ccnc(NC(=O)C3CC3)c2)c1 : ≤ 0.1 µM
6. COC(=O)Nc1cc(-c2cc(-c3cc(NC(=O)c4ccnc(C(C)(C)F)c4)c(F)cc3C)ccn2)ccn1 : ≤ 0.1 µM
